# testedOn: recombinant poly(ADP-ribose) polymerase 2 (PARP2) (Homo sapiens)
# assayNotes: biochemical
# assayConditions: inhibition of PARP2 enzyme activity, chemiluminescence
testReadout: IC50 (nM)
Respond with the bare value in nM.

Below are worked cases with known answers.
| structureAsSmiles | IC50 [nM] |
| --- | --- |
| CNC(=O)c1ccc(N2CCN(Cc3ccc4c(c3)[nH]c(=O)c3c(C)cnn34)CC2)c(F)n1 | 66.4 |
| CNC(=O)c1ccc(N2CCN(Cc3ccc4c5c(c(=O)[nH]c4c3)COC5)CC2)c(C)n1 | 188 |
| CNC(=O)c1ccc(N2CCN(Cc3ccc4c(c3)[nH]c(=O)c3cc(C)nn34)CC2)c(C)n1 | 67.9 |
| CNC(=O)c1ccc(N2CCN(Cc3ccc4c([nH]c(=O)c5ccnn54)c3F)CC2)c(F)n1 | 886 |
| CNC(=O)c1ccc(N2CCN(Cc3cc(F)c4c(c3)[nH]c(=O)c3c(C)cnn34)CC2)c(Cl)n1 | 241 |

Request: IC50, test system recombinant poly(ADP-ribose) polymerase 2 (PARP2) (Homo sapiens), entry CNC(=O)c1ccc(N2CCN(Cc3ccc4c5c(c(=O)[nH]c4c3)COC5)CC2)c(Cl)n1
467

API: value(readout= IC50, system= recombinant poly(ADP-ribose) polymerase 2 (PARP2) (Homo sapiens), query= CNC(=O)c1ccc(N2CCN(Cc3ccc4c(c3)[nH]c(=O)c3c(C)c(C)nn34)CC2)c(F)n1 )
3.7

Requested read-out IC50, target or system recombinant poly(ADP-ribose) polymerase 2 (PARP2) (Homo sapiens), entry CNC(=O)c1ccc(N2CCN(Cc3cc(F)c4c(c3)[nH]c(=O)c3c(C)cnn34)CC2)c(C)n1
153

====

IC50 values by entry
# testedOn: recombinant poly(ADP-ribose) polymerase 2 (PARP2) (Homo sapiens, UniProt Q9UGN5)
# Sequence (Q9UGN5 whole entry): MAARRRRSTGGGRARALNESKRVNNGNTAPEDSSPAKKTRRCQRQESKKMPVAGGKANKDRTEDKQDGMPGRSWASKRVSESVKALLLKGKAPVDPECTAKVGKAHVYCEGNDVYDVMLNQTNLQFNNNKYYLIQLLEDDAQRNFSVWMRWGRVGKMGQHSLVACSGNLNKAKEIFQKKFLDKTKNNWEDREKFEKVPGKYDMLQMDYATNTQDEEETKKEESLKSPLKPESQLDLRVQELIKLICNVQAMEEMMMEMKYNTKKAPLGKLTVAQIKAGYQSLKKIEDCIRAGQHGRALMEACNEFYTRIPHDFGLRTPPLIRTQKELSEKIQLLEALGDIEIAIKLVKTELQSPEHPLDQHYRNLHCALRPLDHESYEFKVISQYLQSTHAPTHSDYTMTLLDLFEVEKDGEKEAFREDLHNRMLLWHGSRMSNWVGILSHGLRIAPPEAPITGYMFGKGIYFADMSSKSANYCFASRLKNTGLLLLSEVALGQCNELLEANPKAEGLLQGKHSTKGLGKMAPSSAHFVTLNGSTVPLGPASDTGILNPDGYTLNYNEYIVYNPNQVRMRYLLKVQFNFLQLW
# assayNotes: biochemical
# assayConditions: inhibition of PARP2 enzyme activity, chemiluminescence
Provide the reading as a plain figure in nM.

Reference set, count: 3
| compound | IC50 / nM |
| --- | --- |
| Cc1nc(C(=O)NC2CC2)ccc1N1CCN(Cc2ccc3c(c2)[nH]c(=O)c2cccn23)CC1 | 21.9 |
| CNC(=O)c1ccc(N2CCN(Cc3cc(F)c4c(c3)[nH]c(=O)c3c(Cl)cnn34)CC2)c(C)n1 | 83 |
| CNC(=O)c1ccc(N2CCN(Cc3cc(F)c4c(c3)[nH]c(=O)n3ccnc43)CC2)c(Cl)n1 | 9500 |

Would you mind telling me what IC50 value was observed for CNC(=O)c1ccc(N2CCN(Cc3ccc4c([nH]c(=O)c5cc(Cl)nn54)c3F)CC2)c(C)n1 ?
1250

Which IC50 is reported for this compound? Cc1nc(C(=O)NCO)ccc1N1CCN(Cc2cc(F)c3c(c2)[nH]c(=O)c2ccnn23)CC1
645

Param item = CNC(=O)c1ccc(N2CCN(Cc3ccc4c([nH]c(=O)c5cc(Cl)nn54)c3F)CC2)c(F)n1 ; retrieve measured IC50.
223

Record request: IC50 value, item CNC(=O)c1ccc(N2CCN(Cc3ccc4c(c3)[nH]c(=O)c3cc(Cl)nn34)CC2)c(C)n1
65.6

Give the measured IC50 of CNC(=O)c1ccc(N2CCN(Cc3ccc4c(c3)[nH]c(=O)c3sccc34)CC2)c(C)n1 .
10.1

Can you look up the measured IC50 of CNC(=O)c1ccc(N2CCN(Cc3cc(F)c4c(c3)[nH]c(=O)n3ccnc43)CC2)c(F)n1 [Example 53] for me?
1950

I'd like to know its IC50. The compound in question is CNC(=O)c1ccc(N2CCN(Cc3ccc4c(c3)[nH]c(=O)c3c(Cl)cnn34)CC2)c(C)n1
41

# IC50 lookup, item CNC(=O)c1ccc(N2CCN(Cc3ccc4c5c(c(=O)[nH]c4c3)COC5)CC2)c(F)n1
128

Report IC50 for Cc1nc(C(N)=O)ccc1N1CCN(Cc2cc(F)c3c(c2)[nH]c(=O)c2ccnn23)CC1 please.
861

IC50 for CNC(=O)c1ccc(N2CCN(Cc3ccc4c(c3)[nH]c(=O)c3ccnn34)CC2)c(Cl)n1 ?
46.5

Endpoint output: IC50 of CNC(=O)c1ccc(N2CCN(Cc3ccc4c(c3)[nH]c(=O)c3cccn34)CC2)c(Cl)n1 . Value?
26.3

Param item = CNC(=O)c1ccc(N2CCN(Cc3cc(C)c4c(c3)[nH]c(=O)c3ccnn34)CC2)c(C)n1 ; retrieve measured IC50.
101

====

# testedOn: recombinant poly(ADP-ribose) polymerase 2 (PARP2) (Homo sapiens, UniProt Q9UGN5)
# assayNotes: biochemical
# assayConditions: inhibition of PARP2 enzyme activity, chemiluminescence
testReadout: IC50 (nM)
The response must be a number in nM with no trailing unit.

| structureAsSmiles | testedOn | IC50 (nM) |
| --- | --- | --- |
| O=C(NC1CC1)c1ccc(N2CCN(Cc3cc(F)c4c(c3)[nH]c(=O)c3cccn34)CC2)c(Cl)n1 | recombinant poly(ADP-ribose) polymerase 2 (PARP2) (Homo sapiens, UniProt Q9UGN5) | 90.1 |
| CNC(=O)c1ccc(N2CCN(Cc3ccc4c([nH]c(=O)c5ccnn54)c3C)CC2)c(F)n1 | recombinant poly(ADP-ribose) polymerase 2 (PARP2) (Homo sapiens, UniProt Q9UGN5) | 222 |
| CNC(=O)c1ccc(N2CCN(Cc3cc(F)c4c(c3)[nH]c(=O)c3cc(Cl)nn34)CC2)c(F)n1 | recombinant poly(ADP-ribose) polymerase 2 (PARP2) (Homo sapiens, UniProt Q9UGN5) | 80.3 |
| Cc1nc(C(=O)NC2CC2)ccc1N1CCN(Cc2cc(F)c3c(c2)[nH]c(=O)c2cccn23)CC1 | recombinant poly(ADP-ribose) polymerase 2 (PARP2) (Homo sapiens, UniProt Q9UGN5) | 66.1 |

What value of IC50 has been reported for the following compound? CNC(=O)c1ccc(N2CCN(Cc3ccc4c(c3)[nH]c(=O)c3c(C)ccn34)CC2)c(C)n1
37.9

Entry CNC(=O)c1ccc(N2CCN(Cc3cc(F)c4c(c3)[nH]c(=O)c3cc(C)nn34)CC2)c(F)n1 : reported IC50 = ?
78.1

Would you mind telling me what IC50 value was observed for CNC(=O)c1ccc(N2CCN(Cc3ccc4c(c3)[nH]c(=O)c3ccsc34)CC2)c(C)n1 ?
78

====

# testedOn: recombinant poly(ADP-ribose) polymerase 2 (PARP2) (Homo sapiens)
# assayNotes: biochemical
# assayConditions: inhibition of PARP2 enzyme activity, chemiluminescence
testReadout: IC50

| compound | IC50 |
| --- | --- |
| CNC(=O)c1ccc(N2CCN(Cc3ccc4c(c3)[nH]c(=O)c3c(C)cnn34)CC2)c(Cl)n1 | 110 nM |
| CCNC(=O)c1ccc(N2CCN(Cc3ccc4c([nH]c(=O)c5ccnn54)c3F)CC2)c(F)n1 | 965 nM |
| CNC(=O)c1ccc(N2CCN(Cc3cc(F)c4c(c3)[nH]c(=O)n3ccnc43)CC2)c(F)n1 [Example 120] | 1950 nM |
| CNC(=O)c1ccc(N2CCN(Cc3cc(F)c4c(c3)[nH]c(=O)c3ccnn34)CC2)c(F)n1 | 318 nM |
| Cc1nc(C(=O)NC2CC2)ccc1N1CCN(Cc2ccc3c(c2)[nH]c(=O)c2ccnn23)CC1 | 150 nM |

Query: IC50; subject: CNC(=O)c1ccc(N2CCN(Cc3ccc4c(c3)[nH]c(=O)c3cc(C)nn34)CC2)c(F)n1
49.9 nM

// query IC50 value for entry CNC(=O)c1ccc(N2CCN(Cc3cc(F)c4c(c3)[nH]c(=O)c3c(C)cnn34)CC2)c(F)n1
64.6 nM

Request the reported IC50 associated with Cc1nc(C(=O)NC2CC2)ccc1N1CCN(Cc2cc(F)c3c(c2)[nH]c(=O)c2ccnn23)CC1
238 nM

Fill blank: measured IC50 of the compound CNC(=O)c1ccc(N2CCN(Cc3ccc4c(c3)[nH]c(=O)c3cnn(C)c34)CC2)c(C)n1 is ____.
910 nM

====

Entries and their IC50 values follow.
# testedOn: recombinant poly(ADP-ribose) polymerase 1 (PARP1) (Homo sapiens)
# Sequence (P09874 whole entry): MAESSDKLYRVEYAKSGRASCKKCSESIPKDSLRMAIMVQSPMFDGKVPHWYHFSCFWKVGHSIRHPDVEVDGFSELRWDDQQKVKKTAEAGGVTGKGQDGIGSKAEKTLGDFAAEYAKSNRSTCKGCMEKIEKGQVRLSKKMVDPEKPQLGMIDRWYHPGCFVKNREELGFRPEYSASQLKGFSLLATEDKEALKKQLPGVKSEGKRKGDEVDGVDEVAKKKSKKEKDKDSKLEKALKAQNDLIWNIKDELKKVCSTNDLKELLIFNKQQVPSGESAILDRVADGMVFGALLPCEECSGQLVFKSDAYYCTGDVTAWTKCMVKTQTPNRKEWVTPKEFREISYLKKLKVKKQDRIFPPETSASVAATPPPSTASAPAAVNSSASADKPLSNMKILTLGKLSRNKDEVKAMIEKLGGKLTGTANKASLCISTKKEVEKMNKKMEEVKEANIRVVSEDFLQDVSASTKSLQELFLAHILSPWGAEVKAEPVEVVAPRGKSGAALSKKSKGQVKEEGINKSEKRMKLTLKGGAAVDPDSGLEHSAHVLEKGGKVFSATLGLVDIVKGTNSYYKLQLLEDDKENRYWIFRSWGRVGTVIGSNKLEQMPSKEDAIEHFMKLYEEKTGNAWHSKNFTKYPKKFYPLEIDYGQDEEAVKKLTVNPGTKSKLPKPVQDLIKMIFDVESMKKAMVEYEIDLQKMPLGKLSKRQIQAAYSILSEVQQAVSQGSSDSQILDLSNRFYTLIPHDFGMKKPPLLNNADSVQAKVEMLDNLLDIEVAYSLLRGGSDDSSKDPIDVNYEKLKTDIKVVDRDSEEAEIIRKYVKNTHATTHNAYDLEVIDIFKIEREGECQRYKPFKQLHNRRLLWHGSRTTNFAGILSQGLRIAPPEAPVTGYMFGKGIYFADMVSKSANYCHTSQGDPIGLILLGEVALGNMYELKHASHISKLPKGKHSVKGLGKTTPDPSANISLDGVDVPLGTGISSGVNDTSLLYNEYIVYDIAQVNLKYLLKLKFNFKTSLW
# assayNotes: biochemical
# assayConditions: inhibition of PARP1 enzyme activity, chemiluminescence
The answer is to be given in nM; state only the numeric part.

Consider the reported IC50 for these molecules:
| molecule | resultUnits | IC50 |
| --- | --- | --- |
| CNC(=O)c1ccc(N2CCN(Cc3cc(F)c4c(c3)[nH]c(=O)c3cccn34)CC2)c(C)n1 [Example 40] | nM | 1.54 |
| CNC(=O)c1ccc(N2CCN(Cc3cc(F)c4c(c3)[nH]c(=O)c3cc(C)nn34)CC2)c(F)n1 [Example 73] | nM | 1.96 |
| CNC(=O)c1ccc(N2CCN(Cc3cc(F)c4c(c3)[nH]c(=O)c3cc(Cl)nn34)CC2)c(C)n1 [Example 87] | nM | 1.22 |
| CNC(=O)c1ccc(N2CCN(Cc3cc(F)c4c(c3)[nH]c(=O)c3cscc34)CC2)c(C)n1 [Example 86] | nM | 0.66 |

Record CNC(=O)c1ccc(N2CCN(Cc3cc(F)c4c(c3)[nH]c(=O)c3occc34)CC2)c(F)n1 [Example 108] : what is its IC50 with recombinant poly(ADP-ribose) polymerase 1 (PARP1) (Homo sapiens)?
0.66

What value of IC50 on recombinant poly(ADP-ribose) polymerase 1 (PARP1) (Homo sapiens) does CNC(=O)c1ccc(N2CCN(Cc3ccc4c(c3)[nH]c(=O)c3c(C)cnn34)CC2)c(F)n1 [Example 71] have?
1.35

Value wanted: IC50 (recombinant poly(ADP-ribose) polymerase 1 (PARP1) (Homo sapiens)) of entry CNC(=O)c1ccc(N2CCN(Cc3ccc4c5c(c(=O)[nH]c4c3)COC5)CC2)c(C)n1 [Example 4]
1.59
